Tested on: HL-60
Experiment: Cytotoxicity in human HL60 cells assessed as reduction in cell growth incubated for 72 hrs by neutral red staining based colorimetry
Type: functional
Conditions: HL-60, 72 h
pIC50: −log10 of the molar value.
readout-label: pIC50

>>> df
                                   compound  value_relation_sign  experimental_result
0  CO[C@@H](C(=O)N[C@@H]1CC[C@@H](O)CNC1=O)[C@H](O)[C@@H](O)[C@H](O)/C=C/C(C)(C)C                    =                 4.92
1  CO[C@@H](C(=O)N[C@@H]1CCCCNC1=O)[C@H](O)[C@@H](O)[C@H](O)/C=C/C(C)(C)C                    =                 5.28
2  CO[C@@H](C(=O)N[C@H]1CC[C@H](O)CNC1=O)[C@H](O)[C@@H](O)[C@H](O)/C=C/C(C)(C)C                    <                 3.82
3  CO[C@@H](C(=O)N[C@@H]1CCCCNC1=O)[C@@H]1OC(C)(C)O[C@H](/C=C/C(C)(C)C)[C@@H]1O                    <                 3.82
4  CO[C@@H](C(=O)N[C@H]1CCCCNC1=O)[C@H](O)[C@@H](O)[C@H](O)/C=C/C(C)(C)C                    =                 4.08
5  CO[C@@H](C(=O)N[C@H]1CC[C@@H](O)CNC1=O)[C@H](O)[C@@H](O)[C@H](O)/C=C/C(C)(C)C                    <                 3.82
6  CO[C@@H](C(=O)N[C@@H]1CC[C@H](O)CNC1=O)[C@H](O)[C@@H](O)[C@H](O)/C=C/C(C)(C)C                    <                 3.82
7  CO[C@@H](C(=O)N[C@H]1CCCCNC1=O)[C@@H]1OC(C)(C)O[C@H](/C=C/C(C)(C)C)[C@@H]1O                    <                 3.82
8  Cc1c2ccncc2c(C)c2c1[nH]c1ccccc12 [ELLIPTECINE]                    =                 5.70
